Provenance of the data: patent US20260242478A1

biological target: T1, Anti-PSMA Fab (SEQ ID NOs: 19, 20); experiment: phage binding ELISA; biotinylated PSMA Fab captured on neutravidin plate, clonal phage supernatant, anti-M13 HRP detection
T1 construct: Biotinylated and captured on neutravidin coated plates in the phage ELISA; also called 006 PSMA Fab
metric: Anti-PSMA Fab (SEQ ID NOs: 19, 20) signal

Examples from the recorded data:
>  <binder>
VMNWCTPVWMCQGF (tested as crude clonal phage supernatant) [Phage-1971]

>  <reported>
1.9

$$$$
>  <binder>
LPKWCTPEWMCIGF (tested as crude clonal phage supernatant) [Phage-1979]

>  <reported>
1.89

$$$$
>  <binder>
SERWCIPTWMCQET (tested as crude clonal phage supernatant) [Phage-1978]

>  <reported>
1.89

$$$$
>  <binder>
LDKWCIPPWMCYSI (tested as crude clonal phage supernatant) [Phage-1980]

>  <reported>
1.89

$$$$
>  <binder>
MAQWCTPAWMCSGF (tested as crude clonal phage supernatant) [Phage-1977]

>  <reported>
1.89

$$$$

Could you report Anti-PSMA Fab (SEQ ID NOs: 19, 20) signal for every entry in the following list?
1. FDKWCIPEWMCAVL (tested as crude clonal phage supernatant) [Phage-1973]
2. YIKWCTPSWMCEAS (tested as crude clonal phage supernatant) [Phage-1968]
3. EFKWCTPSWMCAHL (tested as crude clonal phage supernatant) [Phage-1970]

Outgoing:
1. 1.9
2. 1.9
3. 1.9
